# measurement-notes: log P determination by HPLC retention times (alkan-2-one calibration)
# protocol-conditions: log P(HCOOH), HCOOH; preparation examples in the text
Binning of chromatographic logP into classes: b0: < 2; b1: ≥ 2 and < 3; b2: ≥ 3

{"columns": ["compound", "label-class"],
 "data": [
  ["Fc1ccc(-c2nn3c(c2-c2ccncc2)CCCC3)cc1 [Example 2]", "b0"],
  ["CC(C)(C)OC1Cc2c([O-])on[n+]2C1 (stereo not drawn) [III-4]", "b0"],
  ["Clc1ccc(-c2nn3c(c2I)CCC3)cc1 [VIII-4]", "b2"],
  ["CCOC(=O)CC(=NN1C(=O)CCC1C)c1ccccc1F (stereo not drawn) [XXVIII-3]", "b1"],
  ["FC(F)(F)c1ccc(-c2nn3c(c2I)CCC3)cc1 [VIII-10]", "b2"],
  ["Fc1ccc(-c2nn3c(c2I)CCOC3)cc1 [VIIIa-1]", "b2"],
  ["c1cc(-c2cc3n(n2)CCCC3)cs1 [VII-12]", "b1"],
  ["COc1ccc(-c2cc3n(n2)CCC3)cc1 [VII-7]", "b1"],
  ["COC(=O)CC(=NN1C(=O)CCC1C)c1ccc(F)cc1 (stereo not drawn) [XXVIII-1]", "b1"],
  ["c1ccc(-c2cc3n(n2)CCC3)cc1 [VII-2]", "b1"],
  ["CCOC(=O)c1c(-c2ccccc2F)nn2c1CCC2 [XXX-3]", "b1"],
  ["Ic1c(-c2ccccc2)nn2c1COCC2 [VIII-15]", "b1"],
  ["Fc1cccc(-c2nn3c(c2I)CCC3)c1 [VIII-11]", "b2"],
  ["OCc1cc(-c2ccc(F)cc2)nn1CCCl [XIII-1]", "b0"],
  ["Cc1ccc(-c2cc3n(n2)CCC3)cc1 [VII-8]", "b1"],
  ["Brc1c(-c2ccccc2)nn2c1CSCC2 [VIII-18]", "b2"],
  ["CC1CCn2nc(-c3ccc(F)cc3)c(C(=O)O)c21 (stereo not drawn) [XXXI-2]", "b0"],
  ["Fc1cccc(-c2cc3n(n2)CCC3)c1 [VII-10]", "b1"],
  ["COC(=O)c1cc(-c2ccc(F)cc2)nn1CCCl [XI-1]", "b2"],
  ["CC1CCc2c(Br)c(-c3ccc(F)cc3)nn21 (stereo not drawn) [VIII-20]", "b2"],
  ["Clc1ccc(-c2cc3n(n2)CCC3)cc1 [VII-4]", "b1"],
  ["Fc1ccc(-c2nn3c(c2I)CCCC3)cc1 [VIII-1]", "b2"]
]}
